Please respond with reported fold difference in affinity vs original for every item in the list.
# Target or test system: T1, IL-1β (UniProt P01584 117-269)
# T1 construct: Antigen immobilised on the Biacore chip
# Test summary: Biacore, periplasmic extract
Just the number in fold, nothing appended.

Look up fold difference in affinity vs original of XPA23 light chain S53Y (Fab, V domains shown) VH: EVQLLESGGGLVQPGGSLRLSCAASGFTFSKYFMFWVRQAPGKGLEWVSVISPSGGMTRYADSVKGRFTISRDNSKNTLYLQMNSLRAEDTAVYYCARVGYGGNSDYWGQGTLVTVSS VL: DIQMTQSPSSVSASVGDRLTIICRASQDINRWLAWYQQTPGNAPKLLIHSATYLQSGVPSRFSGSGSGTDFTLTINSLQPEDFATYYCQQADSFPLTFGGGTKVEIK and report it.
1.23

Using the record for XPA23 light chain S53R (Fab, V domains shown) VH: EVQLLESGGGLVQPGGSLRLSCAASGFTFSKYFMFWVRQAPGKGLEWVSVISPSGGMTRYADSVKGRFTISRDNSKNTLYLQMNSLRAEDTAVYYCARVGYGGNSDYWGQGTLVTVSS VL: DIQMTQSPSSVSASVGDRLTIICRASQDINRWLAWYQQTPGNAPKLLIHSATRLQSGVPSRFSGSGSGTDFTLTINSLQPEDFATYYCQQADSFPLTFGGGTKVEIK , state its measured fold difference in affinity vs original.
3.29

Output measured fold difference in affinity vs original for this item: XPA23 light chain D28H (Fab, V domains shown) VH: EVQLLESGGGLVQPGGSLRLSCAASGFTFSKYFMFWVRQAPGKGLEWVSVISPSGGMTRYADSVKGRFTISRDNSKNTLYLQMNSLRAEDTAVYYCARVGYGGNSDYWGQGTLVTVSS VL: DIQMTQSPSSVSASVGDRLTIICRASQHINRWLAWYQQTPGNAPKLLIHSATSLQSGVPSRFSGSGSGTDFTLTINSLQPEDFATYYCQQADSFPLTFGGGTKVEIK
1.23

Answer with reported fold difference in affinity vs original of XPA23 light chain S93D (Fab, V domains shown) VH: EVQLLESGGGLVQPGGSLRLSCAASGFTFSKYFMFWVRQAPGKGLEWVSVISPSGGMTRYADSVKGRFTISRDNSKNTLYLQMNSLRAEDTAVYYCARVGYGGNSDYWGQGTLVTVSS VL: DIQMTQSPSSVSASVGDRLTIICRASQDINRWLAWYQQTPGNAPKLLIHSATSLQSGVPSRFSGSGSGTDFTLTINSLQPEDFATYYCQQADDFPLTFGGGTKVEIK
4.59

Retrieve fold difference in affinity vs original measured for XPA23 light chain T52V (Fab, V domains shown) VH: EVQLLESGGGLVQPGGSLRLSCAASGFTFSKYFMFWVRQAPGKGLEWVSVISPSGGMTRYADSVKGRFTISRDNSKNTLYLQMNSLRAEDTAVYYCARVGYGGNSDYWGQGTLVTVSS VL: DIQMTQSPSSVSASVGDRLTIICRASQDINRWLAWYQQTPGNAPKLLIHSAVSLQSGVPSRFSGSGSGTDFTLTINSLQPEDFATYYCQQADSFPLTFGGGTKVEIK and print it.
0.82

Report fold difference in affinity vs original, nothing else, for this binder: XPA23 light chain A51Q (Fab, V domains shown) VH: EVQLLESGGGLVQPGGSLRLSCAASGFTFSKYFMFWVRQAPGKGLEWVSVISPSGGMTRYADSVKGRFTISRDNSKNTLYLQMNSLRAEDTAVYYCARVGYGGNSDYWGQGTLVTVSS VL: DIQMTQSPSSVSASVGDRLTIICRASQDINRWLAWYQQTPGNAPKLLIHSQTSLQSGVPSRFSGSGSGTDFTLTINSLQPEDFATYYCQQADSFPLTFGGGTKVEIK
0.24

Identify the reported fold difference in affinity vs original for the following entry. XPA23 light chain S53W (Fab, V domains shown) VH: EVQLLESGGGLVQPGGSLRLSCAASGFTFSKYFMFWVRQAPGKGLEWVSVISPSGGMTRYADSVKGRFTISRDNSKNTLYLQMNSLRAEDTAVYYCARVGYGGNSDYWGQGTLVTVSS VL: DIQMTQSPSSVSASVGDRLTIICRASQDINRWLAWYQQTPGNAPKLLIHSATWLQSGVPSRFSGSGSGTDFTLTINSLQPEDFATYYCQQADSFPLTFGGGTKVEIK
1.11

# return recorded fold difference in affinity vs original for entry XPA23 light chain T52K (Fab, V domains shown) VH: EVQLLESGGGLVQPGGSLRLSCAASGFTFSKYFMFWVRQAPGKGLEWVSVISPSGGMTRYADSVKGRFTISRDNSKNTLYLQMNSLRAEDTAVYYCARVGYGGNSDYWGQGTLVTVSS VL: DIQMTQSPSSVSASVGDRLTIICRASQDINRWLAWYQQTPGNAPKLLIHSAKSLQSGVPSRFSGSGSGTDFTLTINSLQPEDFATYYCQQADSFPLTFGGGTKVEIK
3.23

// Input: XPA23 light chain T52W (Fab, V domains shown) VH: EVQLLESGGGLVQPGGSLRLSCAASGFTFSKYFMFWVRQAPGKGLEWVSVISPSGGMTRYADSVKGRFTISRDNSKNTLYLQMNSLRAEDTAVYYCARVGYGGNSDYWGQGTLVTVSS VL: DIQMTQSPSSVSASVGDRLTIICRASQDINRWLAWYQQTPGNAPKLLIHSAWSLQSGVPSRFSGSGSGTDFTLTINSLQPEDFATYYCQQADSFPLTFGGGTKVEIK . Output its fold difference in affinity vs original only.
0.87

Indicate its recorded fold difference in affinity vs original; the binder in question is XPA23 light chain Q27D (Fab, V domains shown) VH: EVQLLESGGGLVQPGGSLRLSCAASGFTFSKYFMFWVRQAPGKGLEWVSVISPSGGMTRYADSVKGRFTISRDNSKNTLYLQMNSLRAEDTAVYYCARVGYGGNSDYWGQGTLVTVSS VL: DIQMTQSPSSVSASVGDRLTIICRASDDINRWLAWYQQTPGNAPKLLIHSATSLQSGVPSRFSGSGSGTDFTLTINSLQPEDFATYYCQQADSFPLTFGGGTKVEIK
1.07
